Reference for the values: patent US10370338B2

# system tested: human TLR8 (Homo sapiens (Human), UniProt Q9NR97)
# Sequence (Q9NR97 27-1041): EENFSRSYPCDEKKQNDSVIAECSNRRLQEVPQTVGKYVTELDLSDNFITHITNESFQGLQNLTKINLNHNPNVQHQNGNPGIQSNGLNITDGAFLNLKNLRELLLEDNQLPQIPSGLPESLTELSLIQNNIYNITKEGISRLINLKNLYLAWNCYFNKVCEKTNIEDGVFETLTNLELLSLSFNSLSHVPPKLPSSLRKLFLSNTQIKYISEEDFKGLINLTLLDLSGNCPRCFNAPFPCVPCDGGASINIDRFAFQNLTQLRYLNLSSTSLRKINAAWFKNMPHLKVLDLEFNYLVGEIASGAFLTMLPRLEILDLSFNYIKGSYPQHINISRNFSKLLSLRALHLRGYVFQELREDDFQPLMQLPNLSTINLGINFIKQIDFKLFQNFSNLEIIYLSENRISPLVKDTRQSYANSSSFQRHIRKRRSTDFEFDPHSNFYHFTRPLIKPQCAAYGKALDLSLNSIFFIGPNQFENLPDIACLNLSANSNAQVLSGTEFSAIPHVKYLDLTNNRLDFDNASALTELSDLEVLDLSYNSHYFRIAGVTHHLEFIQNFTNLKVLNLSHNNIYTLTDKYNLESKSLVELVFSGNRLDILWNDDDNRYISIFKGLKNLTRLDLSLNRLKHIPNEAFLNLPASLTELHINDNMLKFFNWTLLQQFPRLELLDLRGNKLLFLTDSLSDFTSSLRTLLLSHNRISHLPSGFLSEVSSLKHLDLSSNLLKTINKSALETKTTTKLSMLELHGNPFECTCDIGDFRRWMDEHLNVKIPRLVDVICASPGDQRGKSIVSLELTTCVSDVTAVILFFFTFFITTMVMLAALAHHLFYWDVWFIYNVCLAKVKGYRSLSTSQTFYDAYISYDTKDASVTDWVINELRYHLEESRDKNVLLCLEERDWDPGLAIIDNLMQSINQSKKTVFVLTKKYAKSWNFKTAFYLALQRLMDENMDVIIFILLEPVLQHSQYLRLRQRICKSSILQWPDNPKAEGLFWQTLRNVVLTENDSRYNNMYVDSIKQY
# protocol text: HEK-Blue human TLR8 cells NF-κB SEAP reporter assay
# study conditions: stimulation for 20 hours
pEC50: −log10 of the molar value.
Decide using pEC50: a value greater than or equal to 8 is 1 (yes), a smaller one is 0 (no).

Is pEC50 for CCCN(CCC)C(=O)C1=Cc2ccc(C(=O)N3CCN(Cc4ccccc4)CC3)cc2N=C(N)C1 [Example 10] at or above 8?
1 (yes)

Please indicate if the recorded pEC50 for CCCN(CCC)C(=O)C1=Cc2ccc(C(=O)N3CCC(CNc4ccccc4)CC3)cc2N=C(N)C1 [Example 20] meets or exceeds 8.
0 (no)

Does the compound CCCN(CCC)C(=O)C1=Cc2ccc(C(=O)N3CCN(c4ccccc4)CC3)cc2N=C(N)C1 [Example 6] have recorded pEC50 that is 8 or more?
0 (no)

Please check the record CCCN(CCC)C(=O)C1=Cc2ccc(C(=O)N3CC4CC(C3)N4c3ccccc3)cc2N=C(N)C1 [Example 12] and state if its pEC50 is at or above 8.
0 (no)

Check if pEC50 >= 8 (inclusive). Item: CCCN(CC1CC1)C(=O)C1=Cc2ccc(C(=O)N3CCC(Nc4ccccc4)CC3)cc2N=C(N)C1 [Example 9]
0 (no)
